# assay remarks: recombinant UMI read abundance after kanamycin selection (control-corrected) (log10(CPM+1)); higher = more efficient recombination; extreme values may be limits of the assay; sequences stand for … in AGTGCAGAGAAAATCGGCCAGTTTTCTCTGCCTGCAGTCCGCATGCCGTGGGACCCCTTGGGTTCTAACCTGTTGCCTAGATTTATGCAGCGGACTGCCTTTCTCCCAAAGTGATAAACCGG…AGGTTGGTTTCACT; site = the 11-nt donor;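 also: IS621 bridge recombinase in Escherichia coli cells against a fixed T5 target plasmid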
readout label: recombinant UMI read abundance (log10)

Item under review: GAAGGTACATGGACCGGTTTTCCCGGTAATCCGTATTTGAC (site GTAGGTACTGT) . Reported recombinant UMI read abundance (log10)?
2.16

Recorded values, source the supplement of paper PMC11208160.
